Where a name gives a salt, the structure may show the parent alone.
// reported melting point per item

Solved entries:
>>> measured("Cc1cnc2c(NCCN3CCCCC3)nc3cc4ccccc4cc3n12")
"170 to 172 °C"
>>> measured("CNCCNc1nc2cc3ccccc3cc2n2c(C)cnc12 (as salt: hydrochloride)")
"265 to 275 °C (dec.)"

Look up melting point: `Cc1cnc2c(NCCO)nc3cc4ccccc4cc3n12` 186 to 188 °C

Look up melting point: `CNc1nc2cc3ccccc3cc2n2c(C)cnc12` 201 to 202 °C

---

test: Pharmacokinetics in mice; format: in vivo; conditions: mouse, plasma, oral; BALB/c mice; AUC p.o. divided by AUC i.v.
Experimental endpoint: bioavailability (%)
Dear colleague, please return just the value in %, with no unit written.

Look up bioavailability: `Cc1ccc2nc(NCCN)c3ncc(C)n3c2c1` 100

---

molecular target: recombinantly expressed IKK-1 (Homo sapiens, UniProt O15111); assay: IKK-1 enzyme assay (33P-ATP / IκB-α phosphorylation); details: 33P-labeled ATP and IκB-α as substrates
Sequence (O15111 whole entry): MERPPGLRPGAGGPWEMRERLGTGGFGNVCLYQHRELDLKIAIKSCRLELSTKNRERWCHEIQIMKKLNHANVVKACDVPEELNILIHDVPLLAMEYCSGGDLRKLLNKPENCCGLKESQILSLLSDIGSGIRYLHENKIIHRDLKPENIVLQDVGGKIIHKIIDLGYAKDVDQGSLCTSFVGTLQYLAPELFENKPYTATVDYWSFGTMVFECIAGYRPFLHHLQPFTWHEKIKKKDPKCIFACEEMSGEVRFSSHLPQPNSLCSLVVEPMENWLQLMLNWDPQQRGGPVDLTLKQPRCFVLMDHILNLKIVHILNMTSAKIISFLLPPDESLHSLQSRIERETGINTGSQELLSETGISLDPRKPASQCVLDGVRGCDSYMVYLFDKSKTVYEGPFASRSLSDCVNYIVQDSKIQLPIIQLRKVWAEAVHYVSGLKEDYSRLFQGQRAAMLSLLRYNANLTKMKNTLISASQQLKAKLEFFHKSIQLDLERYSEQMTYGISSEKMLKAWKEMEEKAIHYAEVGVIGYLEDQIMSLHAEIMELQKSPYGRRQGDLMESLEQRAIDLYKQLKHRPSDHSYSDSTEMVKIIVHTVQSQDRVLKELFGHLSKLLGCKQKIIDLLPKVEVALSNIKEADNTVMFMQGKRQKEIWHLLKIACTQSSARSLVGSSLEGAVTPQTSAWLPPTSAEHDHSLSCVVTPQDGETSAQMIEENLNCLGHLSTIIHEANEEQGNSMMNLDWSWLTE
pIC50: −log10 of the molar value.
Experimental endpoint: pIC50

>>> measured("Cn1cnc2c(NCCN)nc3cc4ccccc4cc3c21")
6.00
>>> measured("CNc1nc2cc3ccccc3cc2c2c(C)cnn12")
6.17
>>> measured("CNc1nc2cc3ccccc3cc2c2c1ncn2C")
6.10
